The reported measurements were obtained from the RNAGym collection of RNA variant scans (doi:10.1126/science.aae0568).

B1: tRNA (parent)
chain: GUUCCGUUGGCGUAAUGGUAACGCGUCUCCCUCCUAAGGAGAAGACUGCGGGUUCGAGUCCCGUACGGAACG

variants of: B1; experiment: yeast fitness relative to wild type (ratio to wild type); higher = fitter; tRNA-Arg(CCU), competitive growth, 37 C, YPD
Fewer inactive variants are shown than the library holds.
recorded-metric: yeast fitness
# output: bare number, no unit

Incoming: // query yeast fitness value for entry C66U G68C
Outgoing: 0.779

Incoming: // query yeast fitness value for entry U3A G25A G58C C66U
Outgoing: 0.596

Incoming: // query yeast fitness value for entry C5G U64G C66U
Outgoing: 0.593

Incoming: // query yeast fitness value for entry G6A C27G G38C A65C
Outgoing: 0.595

Incoming: // query yeast fitness value for entry C4G A21C
Outgoing: 0.609

Incoming: // query yeast fitness value for entry C22A G51C A57U
Outgoing: 0.624

Incoming: // query yeast fitness value for entry G6A C60A G67C
Outgoing: 0.536
